- System: rice plant
- METHOD SUMMARY: Weed control test for paddy field (Test Example 1): phytotoxicity to rice plant
- Format: in vivo
- SETUP CONDITIONS: dose 5 g ai/a; paddy pots, treated at 1.0 leaf stage of barnyard grass; examined after 3 weeks
Exercise: for every item that follows, state its recorded Phytotoxicity Rice plant.
Answers are plain numbers.

These recorded examples may help you get a feel for the data.
CSCC(=Cc1cccc(C(F)(F)F)c1)c1nc2cc(Cl)ccc2o1    0
COCC(=Cc1cccc(C(F)(F)F)c1)c1nc2cc(C(C)(C)C)ccc2o1    0

# next molecule below
The molecule listed as COCC(=Cc1cccc(C(F)(F)F)c1)c1nc2cc(C(F)(F)F)ccc2o1 has a reported Phytotoxicity Rice plant of 1
